- PROCEDURE_SUMMARY: Plasma pharmacokinetics, Parkinson's disease patients, once daily for 14 days
- Assay type: in vivo, human
- CONDITIONS: human, 12 mg, PD patients, read-out: AUC Over Dosing Interval Geo. Mean
REPORTED_ENDPOINT: AUC (ng·h/mL)
Please state the figure in ng·h/mL; there is no need to write the unit.

QUERY: GET /values?readout=AUC&item= Cc1ccc(C(=O)NNC(=O)c2c(C)cccc2Cl)cc1C#Cc1cnc2ccccc2c1
RESULT: 2710

----------
- EXPERIMENTAL_TARGET: Abl (H396P) (Homo sapiens, UniProt P00519, H396P)
- PROCEDURE_SUMMARY: Biochemical kinase assay, mutant Abl
REPORTED_ENDPOINT: IC50 (nM)
Please state the figure in nM; there is no need to write the unit.

QUERY: GET /values?readout=IC50&item= Cc1ccc(C(=O)NNC(=O)c2c(C)cccc2Cl)cc1C#Cc1cnc2ccccc2c1
RESULT: 0.5

----------
- PROCEDURE_SUMMARY: Plasma pharmacokinetics, Parkinson's disease patients, once daily for 14 days
- Format: in vivo, human
- CONDITIONS: human, 6 mg, PD patients, read-out: AUC Over Dosing Interval Mean
REPORTED_ENDPOINT: AUC (ng·h/mL)
Please state the figure in ng·h/mL; there is no need to write the unit.

QUERY: GET /values?readout=AUC&item= Cc1ccc(C(=O)NNC(=O)c2c(C)cccc2Cl)cc1C#Cc1cnc2ccccc2c1
RESULT: 1250

----------
- PROCEDURE_SUMMARY: Plasma pharmacokinetics, 7 once-daily oral doses, healthy volunteers
- Assay type: in vivo, human
- CONDITIONS: male, human, plasma, oral, 384 mg, Day 7, plasma, healthy volunteers; read-out: Cmax GM
REPORTED_ENDPOINT: Cmax (ng/mL)
Please state the figure in ng/mL; there is no need to write the unit.

QUERY: GET /values?readout=Cmax&item= Cc1ccc(C(=O)NNC(=O)c2c(C)cccc2Cl)cc1C#Cc1cnc2ccccc2c1
RESULT: 6650

----------
- PROCEDURE_SUMMARY: Plasma pharmacokinetics, 7 once-daily oral doses, healthy volunteers
- Format: in vivo, human
- CONDITIONS: male, human, plasma, oral, 192 mg, Day 1, plasma, Healthy Subjects; read-out: AUC0-24 Mean
REPORTED_ENDPOINT: AUC(0-t) (ng·h/mL)
Please state the figure in ng·h/mL; there is no need to write the unit.

QUERY: GET /values?readout=AUC(0-t)&item= Cc1ccc(C(=O)NNC(=O)c2c(C)cccc2Cl)cc1C#Cc1cnc2ccccc2c1
RESULT: 34500

----------
- PROCEDURE_SUMMARY: Plasma pharmacokinetics, Parkinson's disease patients, once daily for 14 days
- Assay type: in vivo, human
- CONDITIONS: human, oral, 24 mg, Day 14, plasma, PD patients, read-out: AUC0-24 Mean
REPORTED_ENDPOINT: AUC(0-t) (ng·h/mL)
Please state the figure in ng·h/mL; there is no need to write the unit.

QUERY: GET /values?readout=AUC(0-t)&item= Cc1ccc(C(=O)NNC(=O)c2c(C)cccc2Cl)cc1C#Cc1cnc2ccccc2c1
RESULT: 5720

----------
- PROCEDURE_SUMMARY: Plasma pharmacokinetics, Parkinson's disease patients, once daily for 14 days
- Assay type: in vivo, human
- CONDITIONS: human, 96 mg, PD patients, read-out: Half-Life Lambda Z Min, Max (converted)
REPORTED_ENDPOINT: half-life

QUERY: GET /values?readout=half-life&item= Cc1ccc(C(=O)NNC(=O)c2c(C)cccc2Cl)cc1C#Cc1cnc2ccccc2c1
RESULT: 5.7 to 26.1 h

----------
- PROCEDURE_SUMMARY: Plasma pharmacokinetics, Parkinson's disease patients, once daily for 14 days
- Format: in vivo, human
- CONDITIONS: human, 48 mg, PD patients, read-out: Half-Life Lambda Z Min, Max (converted)
REPORTED_ENDPOINT: half-life

QUERY: GET /values?readout=half-life&item= Cc1ccc(C(=O)NNC(=O)c2c(C)cccc2Cl)cc1C#Cc1cnc2ccccc2c1
RESULT: 11.2 to 36.3 h

----------
REPORTED_ENDPOINT: IC50 (nM)
Please state the figure in nM; there is no need to write the unit.

QUERY: For Abl (Homo sapiens), provide IC50 of Cc1ccc(C(=O)NNC(=O)c2c(C)cccc2Cl)cc1C#Cc1cnc2ccccc2c1 please.
RESULT: 0.9

----------
- PROCEDURE_SUMMARY: Plasma pharmacokinetics, Parkinson's disease patients, once daily for 14 days
- Type: in vivo, human
- CONDITIONS: human, 24 mg, PD patients, read-out: AUC Over Dosing Interval Median
- Experimental: Of these, 44 subjects completed the study. An additional 10 subjects were enrolled in the open label part of the study, of these, one subject was discontinued due to an AE of vomiting. […] Vodobatinib levels in plasma and CSF were determined using a fully validated LC-MS/MS assay with lower limits of quantitation (LLOQ) of 2.5 ng/mL and 0.05 ng/mL, respectively. […]
REPORTED_ENDPOINT: AUC (ng·h/mL)
Please state the figure in ng·h/mL; there is no need to write the unit.

QUERY: GET /values?readout=AUC&item= Cc1ccc(C(=O)NNC(=O)c2c(C)cccc2Cl)cc1C#Cc1cnc2ccccc2c1
RESULT: 6640

----------
- EXPERIMENTAL_TARGET: Arg (Homo sapiens)
- Sequence (P42684 whole entry): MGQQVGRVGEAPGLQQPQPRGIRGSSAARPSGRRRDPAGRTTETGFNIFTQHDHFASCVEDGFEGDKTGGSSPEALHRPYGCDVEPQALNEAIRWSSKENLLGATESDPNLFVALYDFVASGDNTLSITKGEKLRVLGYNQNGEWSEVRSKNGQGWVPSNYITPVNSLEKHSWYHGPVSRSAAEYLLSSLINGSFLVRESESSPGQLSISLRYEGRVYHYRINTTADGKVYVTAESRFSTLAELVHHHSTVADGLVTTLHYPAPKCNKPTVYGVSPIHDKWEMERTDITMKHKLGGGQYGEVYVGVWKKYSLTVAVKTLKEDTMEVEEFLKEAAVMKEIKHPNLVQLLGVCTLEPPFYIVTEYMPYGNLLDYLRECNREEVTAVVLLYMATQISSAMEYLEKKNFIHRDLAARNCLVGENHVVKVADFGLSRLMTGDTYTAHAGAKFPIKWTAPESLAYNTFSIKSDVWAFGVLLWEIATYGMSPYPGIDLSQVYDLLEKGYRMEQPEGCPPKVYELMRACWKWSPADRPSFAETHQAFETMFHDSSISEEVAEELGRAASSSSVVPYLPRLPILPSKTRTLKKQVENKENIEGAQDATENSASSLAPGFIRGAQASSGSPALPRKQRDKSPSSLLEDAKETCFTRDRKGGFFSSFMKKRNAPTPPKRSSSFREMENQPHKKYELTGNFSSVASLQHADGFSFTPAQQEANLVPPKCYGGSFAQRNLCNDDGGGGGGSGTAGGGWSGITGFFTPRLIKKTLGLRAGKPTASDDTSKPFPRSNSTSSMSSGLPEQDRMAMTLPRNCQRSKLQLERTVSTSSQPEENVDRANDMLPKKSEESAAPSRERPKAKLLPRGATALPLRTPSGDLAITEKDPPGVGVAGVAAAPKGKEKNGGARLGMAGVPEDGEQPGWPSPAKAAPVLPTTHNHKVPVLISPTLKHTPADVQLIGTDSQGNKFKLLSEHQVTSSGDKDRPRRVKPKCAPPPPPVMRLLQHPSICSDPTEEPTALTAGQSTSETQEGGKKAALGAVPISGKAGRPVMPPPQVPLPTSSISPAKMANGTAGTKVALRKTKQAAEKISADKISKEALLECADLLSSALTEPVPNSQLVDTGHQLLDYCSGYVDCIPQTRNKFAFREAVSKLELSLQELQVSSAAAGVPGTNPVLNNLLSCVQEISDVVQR
REPORTED_ENDPOINT: IC50 (nM)
Please state the figure in nM; there is no need to write the unit.

QUERY: GET /values?readout=IC50&item= Cc1ccc(C(=O)NNC(=O)c2c(C)cccc2Cl)cc1C#Cc1cnc2ccccc2c1
RESULT: 0.8

----------
- PROCEDURE_SUMMARY: CSF pharmacokinetics on Day 7, healthy volunteers
- Format: in vivo, human
- CONDITIONS: male, human, CSF, oral, 384 mg, Day 7, CSF, healthy volunteers; read-out: CSF Tmax Median
REPORTED_ENDPOINT: Tmax (h)
Please state the figure in h; there is no need to write the unit.

QUERY: GET /values?readout=Tmax&item= Cc1ccc(C(=O)NNC(=O)c2c(C)cccc2Cl)cc1C#Cc1cnc2ccccc2c1
RESULT: 5

----------
- PROCEDURE_SUMMARY: Plasma pharmacokinetics, 7 once-daily oral doses, healthy volunteers
- Format: in vivo, human
- CONDITIONS: male, human, plasma, oral, 384 mg, Day 1, plasma, Healthy Subjects; read-out: AUC0-24 Mean
REPORTED_ENDPOINT: AUC(0-t) (ng·h/mL)
Please state the figure in ng·h/mL; there is no need to write the unit.

QUERY: GET /values?readout=AUC(0-t)&item= Cc1ccc(C(=O)NNC(=O)c2c(C)cccc2Cl)cc1C#Cc1cnc2ccccc2c1
RESULT: 47600

----------
- PROCEDURE_SUMMARY: Plasma pharmacokinetics, 7 once-daily oral doses, healthy volunteers
- Assay type: in vivo, human
- CONDITIONS: male, human, plasma, oral, 48 mg, Day 7, plasma, healthy volunteers; read-out: Tmax Median
REPORTED_ENDPOINT: Tmax (h)
Please state the figure in h; there is no need to write the unit.

QUERY: GET /values?readout=Tmax&item= Cc1ccc(C(=O)NNC(=O)c2c(C)cccc2Cl)cc1C#Cc1cnc2ccccc2c1
RESULT: 4

----------
- PROCEDURE_SUMMARY: Plasma pharmacokinetics, Parkinson's disease patients, once daily for 14 days
- Type: in vivo, human
- CONDITIONS: human, oral, 12 mg, Day 1, plasma, PD patients, read-out: AUC0-24 Mean
REPORTED_ENDPOINT: AUC(0-t) (ng·h/mL)
Please state the figure in ng·h/mL; there is no need to write the unit.

QUERY: GET /values?readout=AUC(0-t)&item= Cc1ccc(C(=O)NNC(=O)c2c(C)cccc2Cl)cc1C#Cc1cnc2ccccc2c1
RESULT: 2040

----------
- PROCEDURE_SUMMARY: Plasma pharmacokinetics, 7 once-daily oral doses, healthy volunteers
- Format: in vivo, human
- CONDITIONS: male, human, plasma, oral, 192 mg, Day 7, plasma, healthy volunteers; read-out: Cmax GM
REPORTED_ENDPOINT: Cmax (ng/mL)
Please state the figure in ng/mL; there is no need to write the unit.

QUERY: GET /values?readout=Cmax&item= Cc1ccc(C(=O)NNC(=O)c2c(C)cccc2Cl)cc1C#Cc1cnc2ccccc2c1
RESULT: 5020

----------
- PROCEDURE_SUMMARY: Plasma pharmacokinetics, Parkinson's disease patients, once daily for 14 days
- Format: in vivo, human
- CONDITIONS: human, 6 mg, PD patients, read-out: AUC Over Dosing Interval Median
REPORTED_ENDPOINT: AUC

QUERY: GET /values?readout=AUC&item= Cc1ccc(C(=O)NNC(=O)c2c(C)cccc2Cl)cc1C#Cc1cnc2ccccc2c1
RESULT: 1040 ng·h/mL
